- Tested on: HT29 colon
- Method Description: NCI-60 one-dose screen, 48 h (100 = growth as untreated, 0 = no growth, -100 = all killed)
- Assay Context: 10 µM unless noted
This is part of a sample that, as a whole, favours compounds with a hit. Of some 83,000 tested, about 20% had one in any assay.
Observation Type: growth (%)
Answer with a number only, understood to be in %.

Determine reported growth for O=C1C2C(C(=O)[N]1[Hg][c]1ccccc1)C1(Cl)C(Cl)=C(Cl)C2(Cl)C1(Cl)Cl (centres undefined) ; test system: HT29 colon.
-45

// output growth; input `NC(CCl)CCl` ; system HT29 colon
97.8

State measured growth of the compound `CSc1nc(Cl)cc(N2CC2)n1` with HT29 colon.
112

Give growth for `COC(=O)[C@@]1(O)C[C@H]2O[C@]1(C)n1c3ccccc3c3c4c(c5c6ccccc6n2c5c31)C(=O)NC4` tested on HT29 colon.
-24.6

System HT29 colon. Read-out growth. Item CCCCNC(c1ccc(Cl)cc1)C(O)c1ccc(Cl)cc1 (centres undefined) . Report value.
4.8

Please respond with reported growth (system HT29 colon) for `O=C(O)c1ccc([S-])cc1.[Au+].c1ccc(CN2[CH-]N(Cc3ccccc3)C(c3ccccc3)=C2c2ccccc2)cc1` .
-24.7

Jot down growth (HT29 colon) of O=[N+]([O-])c1ccc(OP(=O)(CCl)N(CCCl)CCCl)cc1 (centres undefined) .
86.8

Enter recorded growth with HT29 colon for `C=C1C[C@](OC)([C@H](O)C(=O)N[C@@H](OC)[C@@H]2C[C@@H](O)C(C)(C)[C@@H](C[C@@H](COC)OC)O2)O[C@H](C)[C@@H]1C` here.
-68.7

Supply growth measured with HT29 colon for `CN[C@]1(c2ccccc2Cl)CCCC[C@H]1NCCCN1CCN(C)CC1` .
96
